From: PubChem BioAssay (EPA / NIEHS)

Test: BSK_3C_SRB: Viability Assessment in the BioMAP Diversity Plus: 3C Assay (AID 2283023);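 note: cells read 24 h after compound dosing; fitted both ways against DMSO so a hit may be signal rise or drop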
Details: primary human endothelial cells (HUVEC)
The source made the active and inactive calls. Rule for the calls: active = hit-call score of the fitted dose curve at least 0.9, where 1 is the maximum; inactive = score below 0.9.

smiles_str: O=C(O)c1ccccc1-n1cc(C(=O)O)c(=O)c2cc(Nc3c(F)cc(F)cc3Cl)c(Cl)cc21
outcome: inactive
//
smiles_str: Oc1ccccc1
outcome: inactive
//
smiles_str: Oc1ccc2ccccc2c1
outcome: inactive

---

Read-out: Monokine induced gamma interferon (MIG), CXCL9 (gene 4283)
Assay: BSK_3C_MIG: BioMAP Diversity Plus: 3C Assay for Monokine induced gamma interferon (MIG) Biomarker Activity (AID 2283021)
Details: primary human endothelial cells (HUVEC); actives raise or lower the signal
Active and inactive are the calls of the source. Rule for the calls: active = hit-call score of the fitted dose curve at least 0.9, where 1 is the maximum; inactive = score below 0.9.
Bench note: report the call from label 1 = active, label 0 = inactive

Q) What is the recorded call for this compound in the test? CO[C@H]1/C=C/O[C@@]2(C)Oc3c(C)c(O)c4c(O)c(c(/C=N/N5CCN(C)CC5)c(O)c4c3C2=O)NC(=O)/C(C)=C\C=C\[C@H](C)[C@H](O)[C@@H](C)[C@@H](O)[C@@H](C)[C@H](OC(C)=O)[C@@H]1C
A) label 0

Q) // param item: O=C(O)c1ccccc1-n1cc(C(=O)O)c(=O)c2cc(Nc3c(F)cc(F)cc3Cl)c(Cl)cc21 ; yields the recorded call
A) label 0

Q) Please indicate how the test categorized CN1C(=O)N(c2ccccc2Br)Cc2cnc(Nc3ccc4c(c3)OCC(CO)O4)nc21 (centres undefined) .
A) label 1

Q) For Clc1cc(Cl)c2c(c1)N=C1CCCCCN1C2 , what call appears in the results of this test?
A) label 0

Q) How did this test come out for O=C1O[C@H]([C@@H](O)CO)C(O)=C1O ?
A) label 0
